Assay: in vivo
Design: species or system mice
Conditions: C57, mouse, iv, total radioactivity, Uptake ratio Tumor/muscle
parameter: tissue to tissue ratio at 2 h
Lab note: jot down the number only; don't add units.

I have this compound here, CCCC[C@H](NC(=O)COCCOCCNC(=O)CN1CCN(CC(=O)O)CCN(CC(=O)O)CC1)C(=O)N[C@H]1CC(=O)NCCCC[C@@H](C(N)=O)NC(=O)[C@H](Cc2c[nH]c3ccccc23)NC(=O)[C@H](CCCNC(=N)N)NC(=O)[C@@H](Cc2ccccc2)NC(=O)[C@H](Cc2c[nH]cn2)NC1=O [^67Cu-NOTA-PEG2Nle-CycMSHhex, metal not drawn] , and I need its recorded tissue to tissue ratio at 2 h. 166
